The compounds listed here are annotated with their Activity (control) % ALK (h).
assayTarget: ALK (h) (Homo sapiens (Human))
Sequence (Q9UM73 19-1620): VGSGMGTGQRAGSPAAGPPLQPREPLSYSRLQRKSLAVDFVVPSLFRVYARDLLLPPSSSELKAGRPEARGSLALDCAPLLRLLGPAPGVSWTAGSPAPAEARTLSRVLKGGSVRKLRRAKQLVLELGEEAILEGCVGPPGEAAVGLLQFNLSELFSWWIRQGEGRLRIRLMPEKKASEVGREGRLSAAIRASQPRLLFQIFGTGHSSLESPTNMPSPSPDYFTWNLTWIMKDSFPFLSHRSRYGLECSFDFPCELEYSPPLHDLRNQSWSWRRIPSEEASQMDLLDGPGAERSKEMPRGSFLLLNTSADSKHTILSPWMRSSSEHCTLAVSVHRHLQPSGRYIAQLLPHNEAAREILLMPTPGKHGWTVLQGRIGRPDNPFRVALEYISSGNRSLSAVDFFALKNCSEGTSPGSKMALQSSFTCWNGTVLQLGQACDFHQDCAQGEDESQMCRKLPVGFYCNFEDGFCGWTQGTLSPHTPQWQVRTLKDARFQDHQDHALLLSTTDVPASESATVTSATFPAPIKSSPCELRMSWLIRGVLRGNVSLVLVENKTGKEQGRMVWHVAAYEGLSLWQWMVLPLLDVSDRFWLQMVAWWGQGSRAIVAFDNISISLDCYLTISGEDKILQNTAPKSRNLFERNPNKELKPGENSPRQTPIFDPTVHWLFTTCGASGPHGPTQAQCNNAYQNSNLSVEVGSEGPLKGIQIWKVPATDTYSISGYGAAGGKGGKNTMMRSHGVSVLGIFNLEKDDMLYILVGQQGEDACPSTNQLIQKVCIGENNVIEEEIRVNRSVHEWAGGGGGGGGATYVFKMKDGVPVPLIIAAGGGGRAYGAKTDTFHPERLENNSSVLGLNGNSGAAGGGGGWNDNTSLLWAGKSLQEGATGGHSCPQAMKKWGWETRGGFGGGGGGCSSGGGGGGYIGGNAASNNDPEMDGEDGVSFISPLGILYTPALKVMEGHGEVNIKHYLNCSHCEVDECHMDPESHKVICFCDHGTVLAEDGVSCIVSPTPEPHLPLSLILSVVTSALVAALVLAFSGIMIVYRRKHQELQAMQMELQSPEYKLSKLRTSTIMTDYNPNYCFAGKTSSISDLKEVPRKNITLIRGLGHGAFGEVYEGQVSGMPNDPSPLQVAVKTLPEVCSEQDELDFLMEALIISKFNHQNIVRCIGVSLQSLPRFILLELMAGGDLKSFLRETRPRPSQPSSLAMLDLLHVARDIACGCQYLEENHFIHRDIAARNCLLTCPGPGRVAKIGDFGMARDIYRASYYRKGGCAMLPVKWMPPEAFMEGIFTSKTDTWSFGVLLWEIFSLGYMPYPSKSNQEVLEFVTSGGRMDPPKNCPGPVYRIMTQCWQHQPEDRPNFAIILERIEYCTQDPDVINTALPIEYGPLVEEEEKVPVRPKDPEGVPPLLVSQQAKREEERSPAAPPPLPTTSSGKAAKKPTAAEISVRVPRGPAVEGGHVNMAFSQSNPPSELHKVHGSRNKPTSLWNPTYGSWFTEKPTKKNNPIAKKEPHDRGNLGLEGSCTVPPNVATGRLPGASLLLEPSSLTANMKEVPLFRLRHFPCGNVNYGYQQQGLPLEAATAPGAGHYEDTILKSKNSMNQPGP
assayProcedure: Kinase assay, single dose inhibition (Millipore, 33P-ATP filter binding)
Assay type: biochemical
measurementContext: 0.1 μM test compound, 10 μM ATP; remaining activity relative to DMSO control = 100%
Numbers only; they are read as %.

>>> readoutnumber("CCN(CC)C(=O)C(=O)c1ccccc1Nc1nc(Nc2ccc(N3CCN(C)CC3)c(OC)c2)ncc1Cl")
13
>>> readoutnumber("C=CC(=O)Nc1cc(Nc2ncc(Cl)c(Nc3ccccc3C(=O)C(=O)N(C)C)n2)c(OC)cc1F")
35
>>> readoutnumber("COc1cc(N2CCC(N(C)C)CC2)ccc1Nc1ncc(Cl)c(Nc2ccccc2C(=O)C(N)=O)n1")
8
>>> readoutnumber("COc1cc(Nc2ncc(Cl)c(Nc3ccccc3C(=O)C(=O)N(C)C)n2)ccc1N1CCN(C)CC1")
5
>>> readoutnumber("C=C(CN1CCCCC1)C(=O)Nc1cc(Nc2ncc(Cl)c(Nc3ccccc3C(=O)C(=O)N(C)C)n2)ccc1N1CCOCC1")
8

query: Record request: Activity (control) % ALK (h) value, item "C=CC(=O)Nc1ccc(OC)c(Nc2ncc(Cl)c(Nc3ccccc3C(=O)C(=O)N(C)C)n2)c1"
result: 13

query: Now try "CN(C)C(=O)C(=O)c1ccccc1Nc1nc(Nc2ccc(F)c(NC(=O)CCN3CCOCC3)c2)ncc1Cl" .
result: 17

query: Now consider "COc1cc(Nc2ncc(Cl)c(Nc3ccccc3C(=O)C(=O)N(C)C)n2)ccc1N1CCOCC1" and answer again.
result: 8

query: Another compound to look at: "C=CC(=O)Nc1ccc(OC)c(Nc2ncc(Cl)c(Nc3ccccc3C(=O)C(=O)N3CCN(C)CC3)n2)c1"
result: 8

query: Also need "C=CC(=O)Nc1cc(Nc2ncc(Cl)c(Nc3ccccc3C(=O)C(=O)N(C)CCN(C)C)n2)ccc1OC" , thanks.
result: 5

query: Now try "C=CC(=O)Nc1cc(Nc2ncc(Cl)c(Nc3ccccc3C(=O)C(=O)N(C)C)n2)ccc1N1CCN(C)CC1" .
result: 8

query: And "C=CC(=O)Nc1ccc(N2CCN(C)CC2)c(Nc2ncc(Cl)c(Nc3ccccc3C(=O)C(=O)N(C)C)n2)c1" ?
result: 80
